biological target: constitutively active recombinant Rac1, glutamine 61 to leucine, histidine tagged (Homo sapiens (Human), UniProt P63000 1-192); test: competition in Rac1: POSH G-LISA, 5 ng Rac1 (61L), POSH-GBD maleimide plate, PAK-GBD-GST at 0 to 10 µM
value.type: IC50

Notebook: PAK-GBD-GST peptide (other, range 68-151; also called PAK1-GST; PAK-GST; not shown: Glutathione S transferase tag of vector pGEX-4T with thrombin site, N-terminal) KEKERPEISLPSDFEHTIHVGFDAVTGEFTGMPEQWARLLQTSNITKSEQKKNPQAVLDVLEFYNSKKTSNSQKYMSFTDKSAEC , IC50 read as ~100 nM
